Cited source: PubChem BioAssay AID1918957

Assignment: determine reported viability, T/C for the given compounds.
test system: NCI-H1876 complex spheroid viability; assay: Anticancer human tumor NCI-H1876 cell line growth inhibition [LSD1]; conditions: second compound 10 µM; first compound 0.000316 µM; hits give low values
Numbers only, in %.

Below are some compounds; for each one, tell me its viability, T/C.
1. CC[C@@]1(O)C(=O)OCc2c1cc1n(c2=O)Cc2cc3c(CN(C)C)c(O)ccc3nc2-1 + NC1CCC(NC2CC2c2ccccc2)CC1
2. CC(C)CC(NC(=O)CNC(=O)c1cc(Cl)ccc1Cl)B1OC(=O)CC(CC(=O)O)(C(=O)O)O1 (stereo not drawn) + NC1CC1c1ccc(-c2cccc(O)c2)cc1
3. CC(C)CC(NC(=O)C(Cc1ccccc1)NC(=O)c1cnccn1)B(O)O (stereo not drawn) + NC1CC1c1ccc(-c2cccc(O)c2)cc1
4. Cn1ncnc1C1c2n[nH]c(=O)c3cc(F)cc(c23)NC1c1ccc(F)cc1 (stereo not drawn) + NC1CCC(NC2CC2c2ccccc2)CC1
5. Cn1ncnc1C1c2n[nH]c(=O)c3cc(F)cc(c23)NC1c1ccc(F)cc1 (stereo not drawn) + NC1CC1c1ccc(-c2cccc(O)c2)cc1
6. CC(C)CC(NC(=O)CNC(=O)c1cc(Cl)ccc1Cl)B1OC(=O)CC(CC(=O)O)(C(=O)O)O1 (stereo not drawn) + NC1CCC(NC2CC2c2ccccc2)CC1
7. CC(C)CC(NC(=O)C(Cc1ccccc1)NC(=O)c1cnccn1)B(O)O (stereo not drawn) + NC1CCC(NC2CC2c2ccccc2)CC1
8. CC[C@@]1(O)C(=O)OCc2c1cc1n(c2=O)Cc2cc3c(CN(C)C)c(O)ccc3nc2-1 + NC1CC1c1ccc(-c2cccc(O)c2)cc1

[112, 103, 41.6, 104, 107, 99, 74, 97.8]

----------
Assignment: determine reported viability, T/C for the given molecules.
system: NCI-H1876 complex spheroid viability; test: Anticancer human tumor NCI-H1876 cell line growth inhibition [LSD1]; details: second compound 0.316 µM; first compound 0.000949 µM; hits give low values;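 also: spheroids exposed to compounds for one week before readout; 100% = DMSO vehicle-treated spheroids so lower means fewer viable cells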
Answers are plain numbers, in %.

Guide cases for viability, T/C, answers given:
>  <molecule>
Nc1ccn(C2OC(CO)C(O)C2(F)F)c(=O)n1 (stereo unspecified) + NC1CCC(NC2CC2c2ccccc2)CC1

>  <targetUnderTest>
NCI-H1876 complex spheroid viability

>  <unitDescriptor>
%

>  <val>
104

$$$$
>  <molecule>
CCc1c2c(nc3ccc(O)cc13)-c1cc3c(c(=O)n1C2)COC(=O)[C@]3(O)CC + NC1CC1c1ccc(-c2cccc(O)c2)cc1

>  <targetUnderTest>
NCI-H1876 complex spheroid viability

>  <unitDescriptor>
%

>  <val>
5.4

$$$$
>  <molecule>
Nc1ncn(C2CC(O)C(CO)S2)c(=O)n1 (stereo unspecified) + NC1CCC(NC2CC2c2ccccc2)CC1

>  <targetUnderTest>
NCI-H1876 complex spheroid viability

>  <unitDescriptor>
%

>  <val>
105

$$$$

Below are some molecules; for each one, tell me its viability, T/C.
1. Nc1ccn(C2OC(CO)C(O)C2(F)F)c(=O)n1 (stereo unspecified) + NC1CC1c1ccc(-c2cccc(O)c2)cc1
2. Nc1ncn(C2CC(O)C(CO)S2)c(=O)n1 (stereo unspecified) + NC1CC1c1ccc(-c2cccc(O)c2)cc1
3. CCc1c2c(nc3ccc(O)cc13)-c1cc3c(c(=O)n1C2)COC(=O)[C@]3(O)CC + NC1CCC(NC2CC2c2ccccc2)CC1

1: 103; 2: 120; 3: 9.1

----------
system: NCI-H1876 complex spheroid viability; experiment: Anticancer human tumor NCI-H1876 cell line growth inhibition [LSD1]; conditions: second compound 0.1 µM; first compound 0.3 µM; hits give low values;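 also: spheroids exposed to compounds for one week before readout; 100% = DMSO vehicle-treated spheroids so lower means fewer viable cells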
measuredQuantity: viability, T/C (%)
Numbers only, in %.

Guide cases for viability, T/C, answers given:
>  <molecule>
O=C(C=Cc1cccc(S(=O)(=O)Nc2ccccc2)c1)NO + NC1CCC(NC2CC2c2ccccc2)CC1

>  <targetUnderTest>
NCI-H1876 complex spheroid viability

>  <val>
27

$$$$
>  <molecule>
COc1cc(C2c3cc4c(cc3C(OC3OC5COC(C)OC5C(O)C3O)C3COC(=O)C23)OCO4)cc(OC)c1O (centres undefined) + NC1CC1c1ccc(-c2cccc(O)c2)cc1

>  <targetUnderTest>
NCI-H1876 complex spheroid viability

>  <val>
11.4

$$$$
>  <molecule>
CCN(c1cc(-c2ccc(CN3CCOCC3)cc2)cc(C(=O)NCc2c(C)cc(C)[nH]c2=O)c1C)C1CCOCC1 + NC1CC1c1ccc(-c2cccc(O)c2)cc1

>  <targetUnderTest>
NCI-H1876 complex spheroid viability

>  <val>
99.6

$$$$

Consider now this further molecule.
Give the observed viability, T/C of Nc1ccn(C2OC(CO)C(O)C2(F)F)c(=O)n1 (centres undefined) + NC1CCC(NC2CC2c2ccccc2)CC1 for NCI-H1876 complex spheroid viability.
10.8

----------
tested on: NCI-H1876 complex spheroid viability; assay: Anticancer human tumor NCI-H1876 cell line growth inhibition [LSD1]; conditions: second compound 0.1 µM; first compound 3.16 µM; hits give low values;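 also: spheroids exposed to compounds for one week before readout; 100% = DMSO vehicle-treated spheroids so lower means fewer viable cells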
Use viability, T/C to assign classes; range list: I: < 50%; II: ≥ 50% and < 90%; III: ≥ 90%

>  <molecule>
O=C(c1cc(Cc2n[nH]c(=O)c3ccccc23)ccc1F)N1CCN(C(=O)C2CC2)CC1 + NC1CCC(NC2CC2c2ccccc2)CC1

>  <category>
II

$$$$
>  <molecule>
O=C(c1cc(Cc2n[nH]c(=O)c3ccccc23)ccc1F)N1CCN(C(=O)C2CC2)CC1 + NC1CC1c1ccc(-c2cccc(O)c2)cc1

>  <category>
II

$$$$
>  <molecule>
CC1(C)CCC(CN2CCN(c3ccc(C(=O)NS(=O)(=O)c4ccc(NCC5CCOCC5)c([N+](=O)[O-])c4)c(Oc4cnc5[nH]ccc5c4)c3)CC2)=C(c2ccc(Cl)cc2)C1 + NC1CCC(NC2CC2c2ccccc2)CC1

>  <category>
I

$$$$
>  <molecule>
CC1COCCN1c1cc(C2(S(C)(=N)=O)CC2)nc(-c2ccnc3[nH]ccc23)n1 (stereo not given) + NC1CC1c1ccc(-c2cccc(O)c2)cc1

>  <category>
III

$$$$
>  <molecule>
CC(C)c1c(-c2ccccc2)nc2c(C#N)c[nH]n2c1=O + NC1CCC(NC2CC2c2ccccc2)CC1

>  <category>
III

$$$$
>  <molecule>
CC1(C)CCC(CN2CCN(c3ccc(C(=O)NS(=O)(=O)c4ccc(NCC5CCOCC5)c([N+](=O)[O-])c4)c(Oc4cnc5[nH]ccc5c4)c3)CC2)=C(c2ccc(Cl)cc2)C1 + NC1CC1c1ccc(-c2cccc(O)c2)cc1

>  <category>
I

$$$$
>  <molecule>
COc1ccc([C@@H](O)c2cc(-c3ncnc4cc(N5CCOCC5)ccc34)c(F)cc2Cl)nn1 + NC1CC1c1ccc(-c2cccc(O)c2)cc1

>  <category>
I

$$$$

Which category fits this record: CC(C)c1c(-c2ccccc2)nc2c(C#N)c[nH]n2c1=O + NC1CC1c1ccc(-c2cccc(O)c2)cc1
II

----------
tested on: NCI-H1876 complex spheroid viability; assay: Anticancer human tumor NCI-H1876 cell line growth inhibition [LSD1]; conditions: second compound 3.16 µM; first compound 1 µM; hits give low values;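 also: spheroids exposed to compounds for one week before readout; 100% = DMSO vehicle-treated spheroids so lower means fewer viable cells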
measuredQuantity: viability, T/C (%)
Numbers only, in %.

>  <compound>
Nc1ncn(C2CC(O)C(CO)O2)c(=O)n1 (stereo not drawn) + NC1CC1c1ccc(-c2cccc(O)c2)cc1

>  <unitDescriptor>
%

>  <viability, T/C>
89.8

$$$$
>  <compound>
COc1ccc([C@@H](O)c2cc(-c3ncnc4cc(N5CCOCC5)ccc34)c(F)cc2Cl)nn1 + NC1CC1c1ccc(-c2cccc(O)c2)cc1

>  <unitDescriptor>
%

>  <viability, T/C>
50

$$$$
>  <compound>
O=C(c1cc(Cc2n[nH]c(=O)c3ccccc23)ccc1F)N1CCN(C(=O)C2CC2)CC1 + NC1CCC(NC2CC2c2ccccc2)CC1

>  <unitDescriptor>
%

>  <viability, T/C>
86.7

$$$$
>  <compound>
COc1cc(Nc2ncc3c(n2)-c2ccc(Cl)cc2C(c2c(F)cccc2OC)=NC3)ccc1C(=O)O + NC1CC1c1ccc(-c2cccc(O)c2)cc1

>  <unitDescriptor>
%

>  <viability, T/C>
15

$$$$
>  <compound>
COc1cc(Nc2ncc3c(n2)-c2ccc(Cl)cc2C(c2c(F)cccc2OC)=NC3)ccc1C(=O)O + NC1CCC(NC2CC2c2ccccc2)CC1

>  <unitDescriptor>
%

>  <viability, T/C>
22.1

$$$$
>  <compound>
CC1(C)CCC(CN2CCN(c3ccc(C(=O)NS(=O)(=O)c4ccc(NCC5CCOCC5)c([N+](=O)[O-])c4)c(Oc4cnc5[nH]ccc5c4)c3)CC2)=C(c2ccc(Cl)cc2)C1 + NC1CC1c1ccc(-c2cccc(O)c2)cc1

>  <unitDescriptor>
%

>  <viability, T/C>
99.8

$$$$

Below are some compounds; for each one, tell me its viability, T/C.
1. O=C(c1cc(Cc2n[nH]c(=O)c3ccccc23)ccc1F)N1CCN(C(=O)C2CC2)CC1 + NC1CC1c1ccc(-c2cccc(O)c2)cc1
2. O=C(C=Cn1cnc(-c2cc(C(F)(F)F)cc(C(F)(F)F)c2)n1)NNc1cnccn1 + NC1CC1c1ccc(-c2cccc(O)c2)cc1
3. Nc1ncn(C2CC(O)C(CO)O2)c(=O)n1 (stereo not drawn) + NC1CCC(NC2CC2c2ccccc2)CC1
4. CC1COCCN1c1cc(C2(S(C)(=N)=O)CC2)nc(-c2ccnc3[nH]ccc23)n1 (stereo not drawn) + NC1CCC(NC2CC2c2ccccc2)CC1
5. COc1ccc([C@@H](O)c2cc(-c3ncnc4cc(N5CCOCC5)ccc34)c(F)cc2Cl)nn1 + NC1CCC(NC2CC2c2ccccc2)CC1
6. CC1(C)CCC(CN2CCN(c3ccc(C(=O)NS(=O)(=O)c4ccc(NCC5CCOCC5)c([N+](=O)[O-])c4)c(Oc4cnc5[nH]ccc5c4)c3)CC2)=C(c2ccc(Cl)cc2)C1 + NC1CCC(NC2CC2c2ccccc2)CC1
7. CC1COCCN1c1cc(C2(S(C)(=N)=O)CC2)nc(-c2ccnc3[nH]ccc23)n1 (stereo not drawn) + NC1CC1c1ccc(-c2cccc(O)c2)cc1

1. 88.4
2. 14.1
3. 95.8
4. 110
5. 76.4
6. 101
7. 111
